Species: Homo sapiens
ASSAY_DETAILS: To identify inhibition of the IFN signalling (Jak-Stat) pathway via expression of an eGFP reporter gene under the control of an IFN-stimulated response element (ISRE) containing MxA promoter.
Format: functional
Set-up: scale not given: direction of the effect not stated beside the values
TEST_PARAMETERS: 30 µM
# reported Percent Effect; entries follow
RECORDED_ENDPOINT: Percent Effect (%)

- COMPOUND: "N#Cc1ncn(CCC(=O)Nc2c(Cl)cccc2Cl)n1"
  TEST_VALUE: -3.99
- COMPOUND: "CNC(=O)c1ccc(C(=O)N2CCCC(n3cc(C)cn3)C2)cn1 (configuration not stated)"
  TEST_VALUE: 26.2
- COMPOUND: "O=C(CC1=CCCCC1)NCCc1csc(N2CCCC2)n1"
  TEST_VALUE: -20.2
- COMPOUND: "Cc1cccc(-c2ccc(C(=O)NCC(C)(C)C(N)=O)c(=O)[nH]2)c1"
  TEST_VALUE: 0.882
- COMPOUND: "Cc1ccc2c(ccn2CCC(=O)O)c1"
  TEST_VALUE: 11.2
- COMPOUND: "CN1CC(C(=O)NC(C)(C)C)CC1=O (configuration not stated)"
  TEST_VALUE: -7.57
- COMPOUND: "CCc1n[nH]c(C2CN(CCc3ccncc3)CCO2)n1 (configuration not stated)"
  TEST_VALUE: 14
- COMPOUND: "CC(C)c1n[nH]c(C(=O)Nc2cc[nH]n2)c1Br"
  TEST_VALUE: 24.7
- COMPOUND: "Cc1occc1C(=O)N1CCOCC2(CCN(Cc3nccs3)C2)C1 (configuration not stated)"
  TEST_VALUE: -13.2
- COMPOUND: "Cc1cc(=O)n(CC(=O)Nc2ccc(C(N)=O)cc2)nc1C"
  TEST_VALUE: 4.44
- COMPOUND: "Cc1cnn(CC2CCCN2C(=O)c2nccc3ccccc23)c1 (configuration not stated)"
  TEST_VALUE: 10.7
- COMPOUND: "Cc1ncsc1C(=O)N1CCCC(c2noc(C(C)C)n2)C1 (configuration not stated)"
  TEST_VALUE: 7.22
- COMPOUND: "CCc1cccc(NS(=O)(=O)c2cc3c(c(C(=O)O)c2)OCCO3)c1"
  TEST_VALUE: -2.39
- COMPOUND: "CCc1nc(CN(C)CC2CCN(CC(C)O)CC2)no1 (configuration not stated)"
  TEST_VALUE: -23.1
- COMPOUND: "CN(C)C(=O)[C@@H]1CCO[C@@H]2CCN(Cc3ccccc3)C[C@@H]21"
  TEST_VALUE: 10
- COMPOUND: "O=C1NCC2(CCCN(Cc3ccccc3F)C2)Oc2ccccc21 (configuration not stated)"
  TEST_VALUE: 9.51
- COMPOUND: "COCC(NC(=O)c1cc[nH]n1)c1cccc(C(F)(F)F)c1 (configuration not stated)"
  TEST_VALUE: 15.4
- COMPOUND: "COc1ccc(OC)c(C(O)CN2CC(n3cccn3)C2)c1 (configuration not stated)"
  TEST_VALUE: -12.8
- COMPOUND: "O=C(c1cccc(Cl)c1)N1CC[C@H]2[C@H]1CCN2CC1CCOCC1"
  TEST_VALUE: -5.51
- COMPOUND: "CS(=O)(=O)N1CCOCC2(CCN(C(=O)c3cccnc3)CC2)C1"
  TEST_VALUE: -18.8
- COMPOUND: "c1csc(CN2Cc3nccn3CC(Cn3cncn3)C2)n1 (configuration not stated)"
  TEST_VALUE: -1.52
- COMPOUND: "CN(C)c1ccc(CCNC(=O)NCc2ccc(N(C)C)nc2)cc1"
  TEST_VALUE: 5.54
- COMPOUND: "Cn1ccnc1CN1CCN(Cc2ccccc2C#N)CC1"
  TEST_VALUE: 5.87
- COMPOUND: "CN1Cc2c(C(=O)Nc3cccnc3)ncn2-c2ccccc2S1(=O)=O"
  TEST_VALUE: -3.68
- COMPOUND: "O=C(CCN1CCCC1=O)NCc1cccnc1Oc1ccccc1"
  TEST_VALUE: -2.67
- COMPOUND: "Cc1cc(C(C)NC(=O)N2CCC(n3cncn3)CC2)c(C)s1 (configuration not stated)"
  TEST_VALUE: 3.67
- COMPOUND: "CCN1CC(C(=O)N2CCC(Oc3ccccc3C)CC2)CC1=O (configuration not stated)"
  TEST_VALUE: 7.65
- COMPOUND: "Fc1cc(CNCc2ccc3c(c2)CCO3)ccc1N1CCOCC1"
  TEST_VALUE: 2.17
- COMPOUND: "Cc1ccc(C(=O)N2CCC3(CCC(=O)N(CC(N)=O)C3)CC2)c(O)c1"
  TEST_VALUE: -6.14
- COMPOUND: "CC(CNC(=O)Nc1cn[nH]c1)N1CCc2ccccc2C1 (configuration not stated)"
  TEST_VALUE: 12.5
- COMPOUND: "CCc1ccc(CN(CCCn2ccnc2)Cc2ccc(C)s2)o1"
  TEST_VALUE: 38.5
- COMPOUND: "CC(C)COC(C)C(=O)NCc1ccc(OC(C)C)nc1 (configuration not stated)"
  TEST_VALUE: -12.7
- COMPOUND: "O=C1CN(Cc2nnc(-c3ccc(Br)cc3)o2)CCN1"
  TEST_VALUE: 11.5
- COMPOUND: "Cc1cc(F)c(S(=O)(=O)NCCCN2CCC(O)CC2)cc1F"
  TEST_VALUE: 19.9
- COMPOUND: "Cc1ccc(CN2CCCC3(CCN(S(C)(=O)=O)C3)C2)o1 (configuration not stated)"
  TEST_VALUE: 15.2
- COMPOUND: "O=C(NCCC(=O)N1CCCc2ccccc21)c1c(O)cc(F)cc1F"
  TEST_VALUE: 22.7
- COMPOUND: "CCOCCNc1nc(C2CCCC2)nc2c1cnn2C"
  TEST_VALUE: 17.1
- COMPOUND: "O=C(NCc1ccco1)c1nn(C2CCS(=O)(=O)C2)c2c1CCCC2 (configuration not stated)"
  TEST_VALUE: 4.09
- COMPOUND: "O=C(CCNC(=O)C1CCCC1)NCc1cccnc1-n1cncn1"
  TEST_VALUE: -0.451
- COMPOUND: "Cc1noc(C)c1CNc1cc(N2CCCC2CO)ncn1 (configuration not stated)"
  TEST_VALUE: -8.87
- COMPOUND: "CN(C)C(=O)c1ccc(CNC(=O)NCCN(C)C2CCCC2)cc1"
  TEST_VALUE: 22.8
- COMPOUND: "Cc1ncc(-c2nc3cc(S(=O)(=O)N4CCCC4)ccc3n2C)cn1"
  TEST_VALUE: 14.1
- COMPOUND: "Cc1nc(CN2CCc3ncnc(C)c3CC2)cs1"
  TEST_VALUE: -27.4
- COMPOUND: "Cn1ccnc1CNC1CCCN(Cc2noc(C3CC3)n2)C1 (configuration not stated)"
  TEST_VALUE: 1.96
- COMPOUND: "CCOc1ccc(NC(=O)CN2CCN(c3nccn3C)CC2)cc1"
  TEST_VALUE: -6.28
- COMPOUND: "CCn1cc2c(n1)CN(Cc1ccoc1)CC2COCC1CC1 (configuration not stated)"
  TEST_VALUE: -8.7
- COMPOUND: "CC(C)Oc1cccc(C(O)CNC(=O)CCc2ccncc2)c1 (configuration not stated)"
  TEST_VALUE: 0.683

---

ASSAYED_TARGET: AMP-activated protein kinase, AMPK (Homo sapiens) (UniProt P54646+O43741+P54619+Q9UGJ0+Q9Y478+Q13131+Q9UGI9)
ASSAY_DETAILS: AMP-dependent Kinase enzyme assay. An in vitro enzyme assay that detects ADP turnover that is directly proportional to AMPK activity. This uses naive AMPK that is activated during the assay with MK-8722
Assay type: functional
Design: scale not given: direction of the effect not stated beside the values
TEST_PARAMETERS: 30 µM
RECORDED_ENDPOINT: Percent Effect (%)

- MOLECULE: "CCc1nnc(Nc2cccc(C3CCN(CCO)CC3)n2)s1"
  TEST_VALUE: 0.559
- MOLECULE: "Cc1nc(C2CCCN(C(=O)c3ccc(Cn4cccn4)o3)C2)no1 (stereo unspecified)"
  TEST_VALUE: 2.21
- MOLECULE: "CC(C)NC(=O)c1n[nH]c(-n2cnnc2)n1"
  TEST_VALUE: -5.08
- MOLECULE: "CC(Cn1cccn1)NC(=O)Nc1ccc(N(C)C)nc1 (stereo unspecified)"
  TEST_VALUE: -12.7
- MOLECULE: "COCCN1C[C@@H](C)[C@@]2(COCCN(C(=O)Cc3ccccc3)C2)C1"
  TEST_VALUE: 4.69
- MOLECULE: "COC(=O)c1cc(OCC2CCC2)cc(C(=O)N[C@@H]2CNCC[C@H]2O)c1"
  TEST_VALUE: -18.2
- MOLECULE: "CS(=O)(=O)N1CCC(C(=O)NC(Cc2ccsc2)c2ccccn2)CC1 (stereo unspecified)"
  TEST_VALUE: 8.49
- MOLECULE: "CNC(=O)NC(=O)CN1CCC(c2c[nH]c3ccc(OC)cc23)CC1"
  TEST_VALUE: -5.74
- MOLECULE: "Cc1nc2c(c(C)c1CC(=O)Nc1ccc(Cl)cc1)c(=O)[nH]n2C"
  TEST_VALUE: -2.37
- MOLECULE: "CN(C)C(=O)N1C[C@H](Oc2ccccn2)[C@H]2OCCC[C@H]21"
  TEST_VALUE: 4.78
- MOLECULE: "O=C(CCNC(=O)C1CCCC1)NCc1ccccc1Cn1cncn1"
  TEST_VALUE: 0.311
- MOLECULE: "Cn1nccc1C(=O)N1CCOC(Cc2cccnc2)C1 (stereo unspecified)"
  TEST_VALUE: -3.23
- MOLECULE: "N#Cc1cn(C2CC2)c(=O)n(CC(O)c2ccc(OC(F)F)cc2)c1=O (stereo unspecified)"
  TEST_VALUE: -4.7
- MOLECULE: "O=C1CC(c2ccccc2)c2snc(C(=O)O)c2N1 (stereo unspecified)"
  TEST_VALUE: -2.59
- MOLECULE: "CC(=O)N(Cc1ncc(C(C)C)o1)C1CCN(CCn2cccn2)C1 (stereo unspecified)"
  TEST_VALUE: -13.2
- MOLECULE: "Cc1cccnc1NC(=O)NC(C)Cn1cccn1 (stereo unspecified)"
  TEST_VALUE: 7.9
- MOLECULE: "Cc1n[nH]c(C)c1-c1cnc(CC2CCN(C)C2)cn1 (stereo unspecified)"
  TEST_VALUE: 9.74
- MOLECULE: "c1ccc(CN2CCCC2Cn2cncn2)nc1 (stereo unspecified)"
  TEST_VALUE: 3.76
- MOLECULE: "COc1ccc(Cl)cc1C(=O)N1CCOC2(CNCCOC2)C1 (stereo unspecified)"
  TEST_VALUE: 0.241
- MOLECULE: "CN(C)C(=O)CN1CCC2(CCN(Cc3nccs3)CC2)C1=O"
  TEST_VALUE: 0.545
- MOLECULE: "CCc1noc(C)c1C(=O)N(C)Cc1ncc(C)c(OC)c1C"
  TEST_VALUE: 5.05
- MOLECULE: "Cc1c(C(=O)N2CCCC2c2cnn(C)c2)nnn1-c1ccccc1 (stereo unspecified)"
  TEST_VALUE: -11.2
- MOLECULE: "COCCCN1CCC(NC(=O)C(C)C)CC1"
  TEST_VALUE: -0.488
- MOLECULE: "Cc1nc(Cn2nc(C3CCNCC3)n(Cc3ccccc3)c2=O)no1"
  TEST_VALUE: 0.118
- MOLECULE: "CN(CCN1CCCCCC1)C(=O)c1cc(CN2CCC(O)CC2)on1"
  TEST_VALUE: -1.87
- MOLECULE: "O=C(NCc1cccs1)C1CN(C(=O)c2cccs2)CC12CCOCC2 (stereo unspecified)"
  TEST_VALUE: 5.07
- MOLECULE: "CC(C(=O)Nc1ccc(N2CCCC2)nc1)n1cncn1 (stereo unspecified)"
  TEST_VALUE: -32.5
- MOLECULE: "Cc1nc(CN2CCCC(NCCOCC(F)(F)F)C2)no1 (stereo unspecified)"
  TEST_VALUE: -4.02
- MOLECULE: "COc1ccnc(N2CCN(C(=O)CN3CCCC3=O)CC2)n1"
  TEST_VALUE: -5.08
- MOLECULE: "c1cncc(OCc2nnn3c2CN(Cc2ccsc2)CCC3)c1"
  TEST_VALUE: -0.385
- MOLECULE: "CC(C)Nc1nc(N2CCOCC2)nc2c1CN(CC(=O)N(C)C)CC2"
  TEST_VALUE: 6.79
